- assay.protocol: Inhibition of phosphodiesterase assessed as production of inorganic phosphate
property: pIC50
# pIC50 is unitless: minus log10 of the molar concentration; print number only

Q: Field request: pIC50 | item: `CNC(=O)c1c(C)c2c(c(C(=O)NC)c1-c1ccccc1C)Nc1ccccc1S2`
Result: 4.74

Q: Field request: pIC50 | item: CNC(=O)C1=C(C)C2=C(Nc3ccccc3S2)C(C(=O)NC)C1c1ccccc1 (stereo unspecified)
Result: 4.80

Q: Field request: pIC50 | item: `CNC(=O)c1c(C)c2c(c(C(=O)NC)c1-c1ccc3c(c1)OCO3)Nc1ccccc1S2`
Result: 4.70

Q: Field request: pIC50 | item: CNC(=O)C1=C(C)C2=C(Nc3ccccc3S2)C(C(=O)NC)C1c1ccc(Cl)cc1 (stereo unspecified)
Result: 4.59

Q: Field request: pIC50 | item: `CC(=O)Oc1ccccc1C(=O)O`
Result: 4.66

====

- assay.protocol: Inhibition of phosphodiesterase assessed as production of inorganic phosphate
property: pIC50
# pIC50 is unitless: minus log10 of the molar concentration; print number only

Q: Field request: pIC50 | item: CNC(=O)C1=C(C)C2=C(Nc3ccccc3S2)C(C(=O)NC)C1c1ccccc1Cl (centres undefined)
Result: 4.89

Q: Field request: pIC50 | item: `CNC(=O)c1c(C)c2c(c(C(=O)NC)c1-c1ccc(OC)cc1)Nc1ccccc1S2`
Result: 4.66

Q: Field request: pIC50 | item: `CNC(=O)c1c(C)c2c(c(C(=O)NC)c1-c1ccc(Cl)cc1)Nc1ccccc1S2`
Result: 4.74

Q: Field request: pIC50 | item: `CNC(=O)c1c(C)c2c(c(C(=O)NC)c1-c1ccccc1OC)Nc1ccccc1S2`
Result: 4.60

Q: Field request: pIC50 | item: `CNC(=O)c1c(C)c2c(c(C(=O)NC)c1-c1ccccc1Cl)Nc1ccccc1S2`
Result: 4.82

Q: Field request: pIC50 | item: CNC(=O)C1=C(C)C2=C(Nc3ccccc3S2)C(C(=O)NC)C1c1ccc(OC)cc1 (centres undefined)
Result: 4.68

Q: Field request: pIC50 | item: CNC(=O)C1=C(C)C2=C(Nc3ccccc3S2)C(C(=O)NC)C1c1ccccc1C (centres undefined)
Result: 4.74

====

For each of the molecules below, state its pIC50.
# pIC50 is unitless: minus log10 of the molar concentration; print number only

Q: Identify the measured pIC50 of `CNC(=O)c1c(C)c2c(c(C(=O)NC)c1-c1ccc3c(c1)OCO3)Nc1ccccc1S2` for Glutathione hydrolase 1 proenzyme (Homo sapiens).
Result: 4.74

Q: Identify the measured pIC50 of CNC(=O)C1=C(C)C2=C(Nc3ccccc3S2)C(C(=O)NC)C1c1ccccc1C (stereo not given) for Glutathione hydrolase 1 proenzyme (Homo sapiens).
Result: 4.66

Q: Identify the measured pIC50 of `CNC(=O)c1c(C)c2c(c(C(=O)NC)c1-c1ccc(OC)cc1)Nc1ccccc1S2` for Glutathione hydrolase 1 proenzyme (Homo sapiens).
Result: 4.68

Q: Identify the measured pIC50 of `CNC(=O)c1c(C)c2c(c(C(=O)NC)c1-c1ccccc1)Nc1ccccc1S2` for Glutathione hydrolase 1 proenzyme (Homo sapiens).
Result: 4.70

Q: Identify the measured pIC50 of CNC(=O)C1=C(C)C2=C(Nc3ccccc3S2)C(C(=O)NC)C1c1ccc(OC)cc1 (stereo not given) for Glutathione hydrolase 1 proenzyme (Homo sapiens).
Result: 4.60
